biological target: IL-15 (human, UniProt P40933); assay: SPR, anti-human Fc capture
Sequence (P40933 49-162): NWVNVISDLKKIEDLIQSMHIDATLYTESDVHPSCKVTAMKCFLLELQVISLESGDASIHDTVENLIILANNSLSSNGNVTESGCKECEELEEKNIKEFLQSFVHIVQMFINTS
pKd reference
Reminder that pKd is minus the log10 of a molar concentration.

Reference set (4 entries):
{"binder": "RV29 IL-15 arm (antibody, V domains shown) VH: QVQLVQSGAEVKKPGASVKVSCKASGYSFSSFGISWVRQAPGQGLEWLGWISAFNGYTKYAQKFQDRVTMTTDTSTSTAYMELRSLRSDDTAVYYCARDPAAWPLQQSLAWFDPWGQGTMVTVSS VL: QSVLTQPPSASGTPGQRVTISCSGSTSNLKRNYVYWYQQLPGTAPKLLIYRDRRRPSGVPDRFSGSKSGTSASLAISGLRSEDEADYYCAWYDRELSEWVFGGGTKLTVL", "value.measured": 9.94}
{"binder": "RV20 IL-15 arm (antibody, V domains shown) VH: QVQLVQSGAEVKKPGASVKVSCKASGYSFSSFGISWVRQAPGQGLEWLGWISAFNGYTKYAQKFQDRVTMTTDTSTSTAYMELRSLRSDDTAVYYCARDPAAWPLQQSLAWFDPWGQGTMVTVSS VL: QSVLTQPPSASGTPGQRVTISCSGSTSNLKRNYVYWYQQLPGTAPKLLIYRDRRRPSGVPDRFSGSKSGTSASLAISGLRSEDEADYYCAWYDRELSEWVFGGGTKLTVL", "value.measured": 10.28}
{"binder": "RV32 IL-15 arm (antibody, V domains shown) VH: QVQLVQSGAEVKKPGASVKVSCKASGYSFSSFGISWVRQAPGQGLEWLGWISAFNGYTKYAQKFQDRVTMTTDTSTSTAYMELRSLRSDDTAVYYCARDPAAWPLQQSLAWFDPWGQGTMVTVSS VL: QSVLTQPPSASGTPGQRVTISCSGSTSNLKRNYVYWYQQLPGTAPKLLIYRDRRRPSGVPDRFSGSKSGTSASLAISGLRSEDEADYYCAWYDRELSEWVFGGGTKLTVL", "value.measured": 9.97}
{"binder": "RV26 IL-15 arm (antibody, V domains shown) VH: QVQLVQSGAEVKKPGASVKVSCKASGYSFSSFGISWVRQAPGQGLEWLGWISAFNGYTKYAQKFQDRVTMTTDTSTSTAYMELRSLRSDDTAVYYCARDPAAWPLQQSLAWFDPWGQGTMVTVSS VL: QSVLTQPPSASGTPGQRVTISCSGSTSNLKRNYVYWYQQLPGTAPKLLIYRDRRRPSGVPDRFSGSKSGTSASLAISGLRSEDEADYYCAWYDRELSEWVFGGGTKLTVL", "value.measured": 9.40}

Shifting focus to the binder that follows.
query: Give the reported value of pKd for this record: RV15 IL-15 arm (antibody, V domains shown) VH: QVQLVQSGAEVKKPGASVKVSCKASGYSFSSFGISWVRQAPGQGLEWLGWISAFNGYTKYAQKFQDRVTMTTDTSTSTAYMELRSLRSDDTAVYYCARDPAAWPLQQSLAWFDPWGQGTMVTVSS VL: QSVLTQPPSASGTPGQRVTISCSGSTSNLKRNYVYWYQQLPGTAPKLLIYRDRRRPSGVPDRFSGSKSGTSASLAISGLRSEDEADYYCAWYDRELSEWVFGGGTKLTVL
result: 9.97
